- test.method.notes: In vivo pharmacokinetics (rat), peroral cassette dosing
- Design: species or system Wistar rats
- reported.conditions: male, Wistar, plasma, po, 10 mg/kg
experimental.readout: AUC(0-t) (ng·h/mL)

{"columns": ["compound", "experimental.readout", "value.reported"],
 "data": [
  ["Oc1cccc(-c2nnc(-c3cccc(O)c3)nn2)c1 [Compound 59]", "AUC(0-t)", 1200]
]}

A: Oc1ccc(-c2ccc(-c3cccc(O)c3)s2)cc1 [Compound 29, 3-[5-(4-Hydroxyphenyl)-2-thienyl]phenol]
B: Cc1cc(-c2ccc(-c3cccc(O)c3)s2)ccc1O [Compound 45]
**Query** Endpoint returns the identifier whose AUC(0-t) is numerically larger, either A or B . Lab log: write the label of the selected item as the result.
**Result** B
(B: 12000 ng·h/mL, A: 99.2 ng·h/mL)
